# System: Human forskin fibroblasts (cell line BJ)
# assayNotes: in vitro cytotoxic activity, MTT assay
# Format: cell-based
# runConditions: 72 hours; BJ fibroblasts at middle passage
IC10 (concentration causing 10% decrease in MTT reducing activity) by entry:

Use these answered entries as a reference point.
- COc1ccc(CNc2ncnc3c2ncn3C2CCCCO2)cc1OC (stereo not drawn): >200 µM
- COc1cccc(CNc2ncnc3c2ncn3C2CCCCO2)c1 (stereo not drawn): >100 µM

Now consider a different molecule.
Looking for the measured IC10 (concentration causing 10% decrease in MTT reducing activity) of c1coc(CNc2ncnc3c2ncn3C2CCCO2)c1 (stereo not drawn) , can you help?
>200 µM
